ASSAY SUMMARY: Pharmacokinetic analysis in rats
Assay type: in vivo, Sprague-Dawley rats
PARTICULARS: Sprague-Dawley, plasma; rat, IV 2mg/kg
MEASURED PARAMETER: clearance (mL/h/kg)
Use mL/h/kg as the unit, but write only the number.

# input Please supply the value of reported clearance for the item CCN(c1cc(-c2ccc(N3CCN(C)CC3)nc2)cc(C(=O)NCc2c3c(c(C)[nH]c2=O)CCCC3)c1C)C1CCOCC1
# output 4

---

ASSAYED TARGET: DOT1L (Homo sapiens, UniProt Q8TEK3)
Sequence (Q8TEK3 whole entry, species assumed): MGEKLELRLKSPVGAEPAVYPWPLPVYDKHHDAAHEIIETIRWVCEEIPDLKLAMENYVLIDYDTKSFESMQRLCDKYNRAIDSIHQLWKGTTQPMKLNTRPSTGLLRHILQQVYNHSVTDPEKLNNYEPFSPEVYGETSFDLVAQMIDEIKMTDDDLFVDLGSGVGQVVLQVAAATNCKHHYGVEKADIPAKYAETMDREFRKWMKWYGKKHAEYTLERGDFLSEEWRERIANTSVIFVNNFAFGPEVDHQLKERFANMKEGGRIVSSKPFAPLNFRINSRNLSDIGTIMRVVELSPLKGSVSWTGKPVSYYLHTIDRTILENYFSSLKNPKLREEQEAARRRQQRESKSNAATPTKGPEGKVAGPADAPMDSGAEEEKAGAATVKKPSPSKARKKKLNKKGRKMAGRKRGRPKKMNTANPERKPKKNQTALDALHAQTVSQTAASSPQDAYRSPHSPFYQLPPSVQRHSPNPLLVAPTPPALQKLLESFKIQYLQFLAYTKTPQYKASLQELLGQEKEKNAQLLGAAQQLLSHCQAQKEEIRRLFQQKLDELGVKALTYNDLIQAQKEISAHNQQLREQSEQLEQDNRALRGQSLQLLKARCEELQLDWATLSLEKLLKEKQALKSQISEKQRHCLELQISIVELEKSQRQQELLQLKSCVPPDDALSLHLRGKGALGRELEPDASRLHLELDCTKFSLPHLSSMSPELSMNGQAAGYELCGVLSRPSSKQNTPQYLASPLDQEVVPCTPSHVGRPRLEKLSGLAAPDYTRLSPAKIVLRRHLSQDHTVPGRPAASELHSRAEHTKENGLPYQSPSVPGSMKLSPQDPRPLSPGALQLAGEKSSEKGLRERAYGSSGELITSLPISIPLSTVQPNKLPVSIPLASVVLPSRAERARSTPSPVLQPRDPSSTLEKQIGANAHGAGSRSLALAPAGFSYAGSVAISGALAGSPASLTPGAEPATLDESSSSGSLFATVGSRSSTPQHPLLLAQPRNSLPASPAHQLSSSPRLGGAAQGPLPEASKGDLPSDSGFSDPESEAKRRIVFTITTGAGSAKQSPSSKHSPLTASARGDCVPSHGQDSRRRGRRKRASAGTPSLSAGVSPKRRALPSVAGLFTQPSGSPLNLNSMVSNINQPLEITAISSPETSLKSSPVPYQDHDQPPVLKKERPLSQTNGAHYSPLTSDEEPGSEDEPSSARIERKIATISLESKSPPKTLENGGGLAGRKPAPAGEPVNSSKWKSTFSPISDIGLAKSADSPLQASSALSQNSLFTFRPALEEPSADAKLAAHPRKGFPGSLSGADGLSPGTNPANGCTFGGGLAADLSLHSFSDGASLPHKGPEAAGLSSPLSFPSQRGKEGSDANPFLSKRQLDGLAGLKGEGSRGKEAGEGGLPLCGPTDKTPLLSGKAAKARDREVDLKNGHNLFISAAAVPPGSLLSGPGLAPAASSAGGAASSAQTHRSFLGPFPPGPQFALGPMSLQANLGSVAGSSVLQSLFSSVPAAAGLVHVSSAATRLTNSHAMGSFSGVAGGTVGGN
MEASURED PARAMETER: IC50

# input Supply IC50 measured with DOT1L (Homo sapiens, UniProt Q8TEK3) for CCN(c1cc(-c2ccc(N3CCN(C)CC3)nc2)cc(C(=O)NCc2c3c(c(C)[nH]c2=O)CCCC3)c1C)C1CCOCC1 .
# output > 100 µM
